- Protocol notes: A quantitative high throughput screen for small molecules that induce DNA re-replication in MCF 10a normal breast cells. Further: nearly all actives have a fitted effect of over 50% in size.
- Measurement conditions: MCF 10A DNA re-replication, Hoechst nuclear intensity, 48 h; series mostly up to 46.1 µM
Among all 350,000 compounds or so, about 9,900 (2.8%) were called active. Not shown: some 15% with an inconclusive outcome. The call rests on the fitted dose curve; in most records, active means well fitted activation curve with a large enough effect; inconclusive means small, poorly fitted or top-dose-only effect; inactive means no such curve, though single readings can be large or run the other way. The entries come from a sample that favours actives as a whole.
Result category, one only: TRUE = active, FALSE = inactive

Reference set, count: 2
- O=C(CN1C(=O)COc2ccccc21)NCCN1CCc2ccccc2C1: FALSE
- COc1ccc(Cl)cc1C(=O)NNC(=S)NC(=O)/C=C/c1ccco1: FALSE

Q: // outcome(item) with item = CN(c1ccc2nc3ccccc3c(=O)n2n1)C1CCCCC1
A: FALSE

Q: // outcome(item) with item = O=C(/C=C/c1ccco1)NC(=S)Nc1ccccc1Br
A: TRUE

Q: // outcome(item) with item = O=C(COC(=O)c1ccncc1)Nc1ccc2c(c1)OCO2
A: FALSE
